Values were extracted from patent US20220041641A1.

# test.target: CutC from Clostridium sporogenes (Clostridium sporogenes, UniProt A0AAE4Z0A8)
# Sequence (A0ABD6RTF0 entry or part of it): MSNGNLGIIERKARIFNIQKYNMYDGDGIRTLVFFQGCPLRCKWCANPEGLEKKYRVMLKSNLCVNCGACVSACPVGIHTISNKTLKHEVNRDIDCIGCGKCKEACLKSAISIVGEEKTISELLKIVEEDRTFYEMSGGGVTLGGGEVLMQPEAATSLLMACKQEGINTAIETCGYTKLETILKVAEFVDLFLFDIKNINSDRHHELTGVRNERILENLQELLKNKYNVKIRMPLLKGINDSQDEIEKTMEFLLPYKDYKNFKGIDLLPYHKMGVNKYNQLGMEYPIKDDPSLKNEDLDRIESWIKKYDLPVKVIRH
# Sequence (A0AAE4Z0A8 entry or part of it): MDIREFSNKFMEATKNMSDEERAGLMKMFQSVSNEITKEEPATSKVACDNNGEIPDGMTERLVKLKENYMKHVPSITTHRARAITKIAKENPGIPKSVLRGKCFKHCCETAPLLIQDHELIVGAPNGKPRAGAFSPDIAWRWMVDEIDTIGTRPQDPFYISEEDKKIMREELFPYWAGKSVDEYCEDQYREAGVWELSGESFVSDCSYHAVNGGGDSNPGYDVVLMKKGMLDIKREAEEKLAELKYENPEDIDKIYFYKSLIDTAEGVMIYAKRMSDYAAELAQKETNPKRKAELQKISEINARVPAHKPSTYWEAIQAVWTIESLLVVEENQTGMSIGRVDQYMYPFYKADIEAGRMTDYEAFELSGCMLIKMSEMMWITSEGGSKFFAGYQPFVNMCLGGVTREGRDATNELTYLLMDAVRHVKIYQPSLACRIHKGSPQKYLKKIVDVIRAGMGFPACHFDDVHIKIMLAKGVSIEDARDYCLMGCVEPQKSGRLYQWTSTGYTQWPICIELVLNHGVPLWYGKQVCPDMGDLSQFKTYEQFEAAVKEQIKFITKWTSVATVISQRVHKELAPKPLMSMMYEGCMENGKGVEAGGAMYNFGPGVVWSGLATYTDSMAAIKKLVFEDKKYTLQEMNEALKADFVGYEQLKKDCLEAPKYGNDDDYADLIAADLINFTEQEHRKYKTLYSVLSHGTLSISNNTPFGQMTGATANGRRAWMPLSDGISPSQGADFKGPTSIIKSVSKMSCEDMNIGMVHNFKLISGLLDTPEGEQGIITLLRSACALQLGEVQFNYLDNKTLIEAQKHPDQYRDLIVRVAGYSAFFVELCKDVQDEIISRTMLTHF
# assay.summary: Cell-based assay for TMA production from a native producer (C. sporogenes)
# settings: read-out: IC50 Whole cell C. sporogenes; d9-TMA from 1 mM d9-choline, 5 h, 37° C.; run once; value 10 given when no fit or % TMA remaining at 10 μM higher than 15%
Where a name gives a salt, the structure may show the parent alone.
Answer each item with its documented pIC50.
Kindly note that pIC50 refers to -log10 of the concentration in mol/L and answer with the value alone.

Query :: Any idea what pIC50 came out for C#CC[N+](C)(C)CC(=C)C(=O)O.[Br-] [Compound B52] on CutC from Clostridium sporogenes (Clostridium sporogenes, UniProt A0AAE4Z0A8)?
Result :: 8.00

Query :: Quick one: C#CC[N+](C)(C)CCCO [Compound 138, Trifluoroacetate]
Result :: 5.27

Query :: Quick one: C[N+]1(CF)CC[C@@H](O)C1 (some centres unmarked) [Compound 115]
Result :: 5.01

Query :: Quick one: C[N+]1(CF)CCC[C@H]1CO.[I-] (some centres unmarked) [Compound 109]
Result :: 6.38

Query :: Quick one: C#CC[N+]1(C)CC[C@@H](O)C1 (some centres unmarked) [Compound 113]
Result :: 5.90

Query :: Quick one: C#CC[N+](C)(C)CCCC(=O)O [Compound 144]
Result :: 6.15
